Target: human TLR7 (Homo sapiens, UniProt Q9NYK1)
Construct: own knowledge: stably transfected with the human TLR7 gene)
Sequence (Q9NYK1 27-1049): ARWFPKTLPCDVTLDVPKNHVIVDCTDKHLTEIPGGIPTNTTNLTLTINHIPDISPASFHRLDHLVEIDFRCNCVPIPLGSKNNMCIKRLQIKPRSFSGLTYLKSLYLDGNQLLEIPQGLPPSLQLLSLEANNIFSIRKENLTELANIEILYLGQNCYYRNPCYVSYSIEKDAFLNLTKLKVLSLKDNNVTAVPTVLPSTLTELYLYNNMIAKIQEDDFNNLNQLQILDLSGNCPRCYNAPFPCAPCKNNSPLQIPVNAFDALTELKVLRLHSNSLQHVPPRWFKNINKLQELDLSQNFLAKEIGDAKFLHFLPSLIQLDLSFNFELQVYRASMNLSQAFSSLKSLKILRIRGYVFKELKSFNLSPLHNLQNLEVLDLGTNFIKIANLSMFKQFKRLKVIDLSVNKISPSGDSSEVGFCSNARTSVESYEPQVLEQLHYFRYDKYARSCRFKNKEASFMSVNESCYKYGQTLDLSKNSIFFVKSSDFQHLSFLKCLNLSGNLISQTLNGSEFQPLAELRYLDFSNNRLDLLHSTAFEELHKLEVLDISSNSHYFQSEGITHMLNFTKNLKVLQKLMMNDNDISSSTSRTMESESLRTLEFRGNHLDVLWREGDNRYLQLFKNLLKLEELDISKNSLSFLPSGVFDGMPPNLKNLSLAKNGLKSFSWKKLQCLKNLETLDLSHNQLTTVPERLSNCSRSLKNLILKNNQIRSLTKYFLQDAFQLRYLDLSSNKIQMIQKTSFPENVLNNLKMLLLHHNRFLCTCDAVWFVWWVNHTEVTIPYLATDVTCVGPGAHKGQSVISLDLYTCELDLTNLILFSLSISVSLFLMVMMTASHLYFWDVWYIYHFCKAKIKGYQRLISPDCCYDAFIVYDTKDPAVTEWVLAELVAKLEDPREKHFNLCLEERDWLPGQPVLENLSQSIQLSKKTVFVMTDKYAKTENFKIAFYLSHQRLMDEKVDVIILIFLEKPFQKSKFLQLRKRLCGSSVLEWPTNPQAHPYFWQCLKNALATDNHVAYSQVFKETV
Assay: HEK-Blue human TLR7 cells, NF-κB SEAP reporter assay
Settings: stimulation for 20 hours, SEAP reporter read at 640 nm
# if measured EC50 < 20 µM: True  # else: False

INSERT INTO assay_data (molecule, assigned_label) VALUES
  ('CCCN(CCC)C(=O)C1=Cc2ccc(-c3cccc(S(C)(=N)=O)c3)cc2N=C(N)C1 (centres unmarked)', 'True'),
  ('CCCN(CCC)C(=O)C1=Cc2ccc(-c3cccc([S+]([O-])CC)c3)cc2N=C(N)C1 (centres unmarked)', 'True'),
  ('CCCN(CCC)C(=O)C1=Cc2ccc(-c3ccc([S+](C)[O-])cc3)cc2N=C(N)C1 (centres unmarked)', 'True'),
  ('CCCN(CCC)C(=O)C1=Cc2ccc(-c3cncc(S(C)(=N)=O)c3)cc2N=C(N)C1 (centres unmarked)', 'True'),
  ('CCCN(CCC)C(=O)C1=Cc2ccc(-c3cncc([S+](C)[O-])c3)cc2N=C(N)C1 (centres unmarked)', 'True'),
  ('CCCN(CCC)C(=O)C1=Cc2ccc(-c3ccc(S(C)(=N)=O)cc3)cc2N=C(N)C1 (centres unmarked)', 'False'),
  ('CCCN(CCC)C(=O)C1=Cc2ccc(-c3cccc([S+](C)[O-])c3)cc2N=C(N)C1 (centres unmarked)', 'True'),
  ('CCCN(CCC)C(=O)C1=Cc2ccc(-c3ccc(S(=N)(=O)CC)cc3)cc2N=C(N)C1 (centres unmarked)', 'False'),
  ('CCCN(CCC)C(=O)C1=Cc2ccc(-c3ccc([S+]([O-])CC)cc3)cc2N=C(N)C1 (centres unmarked)', 'False'),
  ('CCCN(CCC)C(=O)C1=Cc2ccc(-c3cccc(S(=N)(=O)CC)c3)cc2N=C(N)C1 (centres unmarked)', 'False'),
  ('CCCN(CCC)C(=O)C1=Cc2ccc(-c3cccc(S(C)(=O)=NCCOCCO)c3)cc2N=C(N)C1 (centres unmarked)', 'False');
